Values from patent US10221129B2

Experiment: Compound cytotoxicity, XTT-based colorimetric assay
Assay type: cell-based
Details: human, uninfected MT2 cells, day 4, XTT
Description: Compound cytotoxicity and the corresponding CC50 values were determined using the same protocol as described in the antiviral assay except that uninfected cells were used. Cytotoxicity was assessed on day 4 in uninfected MT2 cells by using a XTT (2,3-bis[2-Methoxy-4-nitro-5-sulfophenyl]-2H-tetrazolium-5-carboxyanilide inner salt)-based colorimetric assay (Sigma-Aldrich, St Louis, Mo.).
READOUT LABEL: CC50 at 4 day

MOLECULE | RESULT
CC1Cc2cccnc2N1S(=O)(=O)NC(=O)N[C@@H](Cc1cc(F)cc(F)c1)C(=O)N(C)c1ccc2scnc2c1 (single isomer, unassigned) | > 1 µM
COc1ccc(N(C)C(=O)[C@H](Cc2ccccc2)NC(=O)NS(=O)(=O)n2ccc3cnccc32)cc1 | > 100 µM

* * *

Experiment: Compound cytotoxicity, XTT-based colorimetric assay
Assay type: cell-based
Details: human, uninfected MT2 cells, day 4, XTT

MOLECULE | CC50 at 4 days
COc1ccc(N(C)C(=O)[C@H](Cc2ccccc2)NC(=O)NS(=O)(=O)N(C)c2ccccc2OC)cc1 | > 100 µM
CN1CCN(S(=O)(=O)NC(=O)N[C@@H](Cc2cc(F)cc(F)c2)C(=O)N(C)c2ccc3scnc3c2)CC1 | > 33.3 µM
COc1ccc(N(C)C(=O)[C@H](Cc2cc(F)cc(F)c2)NC(=O)NS(=O)(=O)N2CCc3c(Cl)ccnc32)cc1 | 61.9 µM
CN(C(=O)[C@H](Cc1cc(F)cc(F)c1)NC(=O)NS(=O)(=O)N1CCc2ccnnc21)c1ccc2scnc2c1 | > 100 µM
CN(C(=O)[C@H](Cc1cc(F)cc(F)c1)NC(=O)NS(=O)(=O)N1CCc2cccnc21)c1ccc2c(cnn2C)c1 | > 25 µM
COc1ccc(N(C)C(=O)[C@H](Cc2ccccc2)NC(=O)NS(=O)(=O)NCc2nccs2)cc1 | > 100 µM
COc1ccc(N(C)C(=O)[C@H](Cc2ccccc2)NC(=O)NS(=O)(=O)Nc2ccc(F)cc2)cc1 | > 100 µM
COc1ccc(N(C)C(=O)[C@H](Cc2ccccc2)NC(=O)NS(=O)(=O)N2CCc3cc(OC)cc(C)c32)cc1 | > 100 µM
CC(C)CN(C)S(=O)(=O)NC(=O)N[C@@H](Cc1cc(F)cc(F)c1)C(=O)N(C)c1ccc2scnc2c1 | > 100 µM
CN(C(=O)[C@H](Cc1cc(F)cc(F)c1)NC(=O)NS(=O)(=O)N1CCCc2cccnc21)c1ccc2scnc2c1 | > 100 µM
CC(C)CCNS(=O)(=O)NC(=O)N[C@@H](Cc1cc(F)cc(F)c1)C(=O)N(C)c1ccc2scnc2c1 | > 100 µM
CN(C(=O)[C@H](Cc1cc(F)cc(F)c1)NC(=O)NS(=O)(=O)N1CCc2cccnc21)c1ccc(C(N)=O)cc1 | > 100 µM
CN(C(=O)[C@H](Cc1cc(F)cc(F)c1)NC(=O)NS(=O)(=O)N1CCc2ccccc2C1)c1ccc2scnc2c1 | 99.7 µM
CC(C)c1ccc(N(C)C(=O)[C@H](Cc2cc(F)cc(F)c2)NC(=O)NS(=O)(=O)N2CCc3cccnc32)cn1 | > 100 µM
CN(C(=O)[C@H](Cc1cc(F)cc(F)c1)NC(=O)NS(=O)(=O)N1CCc2cccnc21)c1ccc(C2CC2)cc1 | 91 µM
COc1ccc(N(C)C(=O)[C@H](Cc2ccccc2)NC(=O)NS(=O)(=O)N2CCc3cc(C)ccc32)cc1 | > 33.3 µM
Cc1cc(N(C)C(=O)[C@H](Cc2cc(F)cc(F)c2)NC(=O)NS(=O)(=O)N2CCc3cccnc32)ccc1Cl | 56.3 µM
Cc1cc(N(C)C(=O)[C@H](Cc2cc(F)cc(F)c2)NC(=O)NS(=O)(=O)N2CCc3cccnc32)ccc1F | 91.2 µM
CCNS(=O)(=O)NC(=O)N[C@@H](Cc1cc(F)cc(F)c1)C(=O)N(C)c1ccc2scnc2c1 | > 100 µM
COc1ccc(N(C)C(=O)[C@H](Cc2ccccc2)NC(=O)NS(=O)(=O)Nc2ncccn2)cc1 | > 100 µM
COc1ccc(N(C)C(=O)[C@H](Cc2ccccc2)NC(=O)NS(=O)(=O)Nc2ccc(OC(F)(F)F)cc2)cc1 | > 33.3 µM
COc1ccc(N(C)C(=O)[C@H](Cc2ccccc2)NC(=O)NS(=O)(=O)Nc2cccc3ccccc23)cc1 | 89.4 µM
CN(C(=O)[C@H](Cc1cc(F)cc(F)c1)NC(=O)NS(=O)(=O)N1CCc2cccnc21)c1ccc2sc(=O)[nH]c2c1 | > 100 µM
COc1ccc(N(C)C(=O)[C@H](Cc2ccccc2)NC(=O)NS(=O)(=O)Nc2cccc(-c3ccccc3)c2)cc1 | > 33.3 µM
Cc1ccc2c(n1)N(S(=O)(=O)NC(=O)N[C@@H](Cc1cc(F)cc(F)c1)C(=O)N(C)c1ccc3scnc3c1)CCC2 | > 50 µM
COc1ccc(N(C)C(=O)[C@H](Cc2ccccc2)NC(=O)NS(=O)(=O)N2CCN(C)CC2c2ccccc2)cc1 (mixture of isomers) | > 100 µM
CCOc1ccc(NS(=O)(=O)NC(=O)N[C@@H](Cc2ccccc2)C(=O)N(C)c2ccc(OC)cc2)cc1 | > 100 µM
CCN(c1ccccc1)S(=O)(=O)NC(=O)N[C@@H](Cc1ccccc1)C(=O)N(C)c1ccc(OC)cc1 | > 100 µM
COc1ccc(N(C)C(=O)[C@H](Cc2ccccc2)NC(=O)NS(=O)(=O)N2CCc3ccccc3C2)cc1 | > 100 µM
